Molecular target: mu opioid receptor (MOR) (Homo sapiens)
Assay: Hit Hunter cAMP signaling assay (adenylyl cyclase inhibition), PAM mode with EC20 endomorphin-1
Assay type: cell-based
Conditions: cAMP EC50, adenylyl cyclase inhibition
pEC50: −log10 of the molar value.
reported_property: pEC50

Request: Look up pEC50 with mu opioid receptor (MOR) (Homo sapiens) for this molecule: Cc1ncccc1C1CCCCN1c1nc(Cl)ncc1F (centres unmarked)
Response: > 6.15

* * *

Molecular target: mu opioid receptor (MOR) (Homo sapiens)
Assay: PathHunter β-arrestin recruitment assay, PAM mode with EC20 endomorphin-1
Format: cell-based
Conditions: β-arrestin recruitment; read-out: β-arr. EC50
Description: The effects of MOR PAMs and MOR SAMs on receptor activity were assayed using the PathHunter enzyme complementation assay technology (DiscoveRx, CA). A description of the technology employed is as follows. […] In this manner an EC50 for each test compound, and percent maximal response for each test compound, were determined for both the β-arrestin and cAMP pathways. […]
reported_property: EC50

Request: # input compound: Cc1ncccc1C1CCCCN1c1nc(Cl)ncc1F (stereo not shown) [compound 407] ; wanted: its EC50
Response: < 700 nM

Request: # input compound: O=S(=O)(c1ccc(Cl)cc1)N1CCCCC1c1ccc(F)nc1 (racemic) [compound 53] ; wanted: its EC50
Response: > 2100 nM

Request: # input compound: COc1ccc(C2CCCCN2c2ncncc2F)cc1Br (stereo not shown) [compound 233] ; wanted: its EC50
Response: > 2100 nM

* * *

List of EC50 values.
Biological target: mu opioid receptor (MOR) (Homo sapiens, UniProt P35372)
Sequence (P35372 whole entry): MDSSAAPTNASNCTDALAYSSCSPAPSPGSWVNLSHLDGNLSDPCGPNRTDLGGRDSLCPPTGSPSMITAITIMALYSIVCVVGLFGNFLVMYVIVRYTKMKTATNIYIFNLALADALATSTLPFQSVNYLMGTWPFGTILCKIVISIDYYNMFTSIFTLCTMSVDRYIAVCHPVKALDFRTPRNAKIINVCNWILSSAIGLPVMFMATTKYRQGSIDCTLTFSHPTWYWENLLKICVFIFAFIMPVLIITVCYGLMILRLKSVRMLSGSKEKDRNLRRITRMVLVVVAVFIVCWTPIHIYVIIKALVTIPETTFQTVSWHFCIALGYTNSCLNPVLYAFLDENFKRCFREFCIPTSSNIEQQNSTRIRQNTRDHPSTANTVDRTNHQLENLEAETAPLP
Assay: Hit Hunter cAMP signaling assay (adenylyl cyclase inhibition), PAM mode with EC20 endomorphin-1
Format: cell-based
Details: adenylyl cyclase inhibition; read-out: cAMP EC50

O=S(=O)(c1ccc(Cl)cc1)N1CCCCC1c1nccc(C(F)(F)F)n1 (racemic) [compound 73] | > 2.1 µM
O=S(=O)(c1ccc(Cl)cc1)N1CCCCC1c1ccc(F)c(Cl)c1 (racemic) [compound 52] | < 0.7 µM
Fc1cc(C2CSCCN2c2nc(Cl)ncc2F)cc(C(F)(F)F)c1 (racemic) [Compound 301] | < 0.7 µM
OCCNc1cccc(C2CCCCN2Cc2cc(Cl)ccc2F)n1 (stereo not drawn) [compound 141] | > 2.1 µM
Cc1cc(C2CCCCN2S(=O)(=O)c2ccc(Cl)cc2)ccn1 (racemic) [compound 77] | > 2.1 µM
O=S(=O)(Cc1ccc(Cl)c(Cl)c1)N1CCCCC1c1cccc(C(F)(F)F)c1 (stereo not drawn) [Compound 23] | > 2.1 µM
O=S(=O)(c1ccc(Cl)cc1F)N1CCCC(F)C1c1ccc(F)c(Br)c1 (stereo not drawn) [Compound 37] | > 2.1 µM
Fc1ccc(Cl)cc1CN1CCOCC1c1cccc(C(F)(F)F)n1 (racemic) [Compound 191] | 0.7 to 2.1 µM
O=S(=O)(c1cccc(Cl)c1)N1CCCC(F)C1c1ccc(F)c(Br)c1 (stereo not drawn) [Compound 32] | > 2.1 µM
Cc1cc(C2C(C)CCN2S(=O)(=O)c2ccc(Cl)cc2)ccc1F (mixture of isomers) [Compound 101] | < 0.7 µM

Let us examine a further case.
Request: # input molecule: O=S(=O)(c1ccc(Cl)cc1)N1CCCCC1c1ccc(Cl)c(C(F)(F)F)c1 (single isomer, unassigned) [compound 69] ; wanted: its EC50
Response: 0.7 to 2.1 µM

Values from patent US11071731B2
